- protocol: soluble on expression in E. coli; label from the status in PepcDB or PDB records
metric.name: soluble on expression in E. coli

Take a look at these entries with their results.
INSERT INTO measurements (residue_string, metric_name, reading) VALUES
  ('MGSDKIHHHHHHMMATIKDIAKEVGCSISTVSRVLNNDPTLSVGDETRSRIFEVAEEIGYRKKTLKTLVKNIAFLYWLTDNEELEDVYFQTMRVEIEKKARENNIELTTYKLEGGIEKIPLDIDGFIAVGSFMNRELEYLRELTPHGVFIDSTPDPAHYDSVRPDLAQITRQAVEVLVEQGHEKIGFIGGTYHNLDTDAEEMDGRERAFRQTMEERDLLREDFIFCRRGFSVDNGHYLMNQAVEQLGEELPTAFYVAADPIAVGCLQVLNEQQIEIPKRVSLISVNDTSISKYVSPPLTTFHIDLEEICQNAIQLLLERVLKKRNIVKTVYIGAELITRKSTL', 'soluble on expression in E. coli', 'not soluble'),
  ('AHHHHHHGSDLERALNAFHSMKVNQLTPPCSQMPIVEEDSPIIDVLKLLRTRHHVWVVNNRKDMKLVGIIRYLDIIDIFLPPKGARLGAVSSVFKSILSGAEKAGDIMERNFLTINEDATVLEALEKMKRYKIQILALIDEEGKLKGEISLRILINEFLRLIRVGGG', 'soluble on expression in E. coli', 'soluble'),
  ('MKNIAIIGASGYTGAQLTALVHAESELSIQGLYVSENSLDKGRALADLYPVYSHIELTLSPLTEEAKANIVAEADAVVLATEHSVSLHLAAWFYSQGLAVFDLSGAYRFSDVAQYPKWYGFEHEYPEVLAKAVYGLAEWNAKDVAATKMIAVPGCYPTASLTALKPLKNLLTSAYPVINAVSGVTGAGRKAQLHTSFCEVSLTPYGVLGHRHQPEIATQLGQEVIFTPHLGNFKRGILATITVQLKPGTTTADVAAAYSVYDQAPLVTVKQNQFPKVDDVVLTPNCHLGWKFDESSGYLVVASAIDNLMKGAASQALQCIKIHFNL', 'soluble on expression in E. coli', 'not soluble'),
  ('MSLSDINNMAYGISDMLGSIDNLAMFDLVVPHFRGKENECLFGMFGRATTTLQGGKIAKHVQEIFAETLTAHLHKLEPGEEPSEALRRTFLWGDRKAFEFFSGKLQLEKERKPSWTSFASFDSMFRGWTPGVNSVLRTGASGAVVYLVDKVLHVGSIGDTLVVLSRKGDAELLSKRHDPTDREESARIRKAEAWVSTKGFVNDDKDLDISRAFGYWHECPAVNAAPEIRTRRLQESDEFVIIGNHALWQFCSYQTAVDIARTERDDPMIAAQKLRDFAISYGAEGNVMVMVVNVSDLFLGKEGHHHHHH', 'soluble on expression in E. coli', 'not soluble');

Turning now to a further record.
Field soluble on expression in E. coli (entry GSSHHHHHHSSGRENLYFQGHMPKRRKSVTGEIVLITGAGHGIGRLTAYEFAKLKSKLVLWDINKHGLEETAAKCKGLGAKVHTFVVDCSNREDIYSSAKKVKAEIGDVSILVNNAGVVYTSDLFATQDPQIEKTFEVNVLAHFWTTKAFLPAMTKNNHGHIVTVASAAGHVSVPFLLAYCSSKFAAVGFHKTLTDELAALQITGVKTTCLCPNFVNTGFIKNPSTSLGPTLEPEEVVNRLMHGILTEQKMIFIPSSIAFLTTLERILPEGS ) reads soluble
